# System: SK-MEL-5
# protocol-notes: NCI tumour cell line growth inhibition, 48 h
Activity calls are given as the source filed them. Cut-off read from the data, not from the text of the source: active = GI50 up to about 1.1 µM and inactive = higher.
Answer with one of the outcomes given here: 1.0 = active, 0.0 = inactive

Answered examples (5):
compound: CCCCCCCC(=O)OCC1OC(OC)C(NC(=O)N(CCCl)N=O)C(O)C1O (centres undefined)
system-name: SK-MEL-5
label-class: 0.0
--
compound: O=C(N/C(=C\c1ccc(Cl)cc1)c1nc2ccccc2[nH]1)c1ccccc1
system-name: SK-MEL-5
label-class: 0.0
--
compound: C=C1C(=O)OC2C1C(OC(=O)/C(=C/C)COC(C)=O)CC1(CO1)C1C(OC(=O)/C(=C/C)CO)C=C(C)C21 (centres undefined)
system-name: SK-MEL-5
label-class: 0.0
--
compound: O=C(c1ccc(Cl)cc1)N(C(=S)N1CCN(c2ccccc2)CC1)C1CCCCC1
system-name: SK-MEL-5
label-class: 0.0
--
compound: Cc1nc2ccc(Br)cc2c(=O)n1-c1ccc(NC2OCC(O)C(O)C2O)cc1 (centres undefined)
system-name: SK-MEL-5
label-class: 0.0

-- ask Identify the outcome logged in this assay for the compound shown: CC(C)N1CC2CC(CN(C(=O)c3ccc(Cl)cc3)C2)C1
-- reply 0.0

-- ask Check the results log: what was the call for CC[N+](C)(CC)CCN1C(=O)c2ccccc2S1(=O)=O ?
-- reply 0.0

-- ask Any idea what this test logged for COC(=O)c1cc2c(=O)n(C)c3ccccc3n2c1C(=O)OC ?
-- reply 0.0

-- ask I would be grateful if you could indicate the recorded call for CN(c1ccccc1Cl)S(=O)(=O)c1ccccc1 .
-- reply 0.0

-- ask In this assay, the call recorded for CC(=O)NNc1nc(C)c(C(/C=C/c2ccccc2O)=N/N=C(N)N)s1 was what?
-- reply 0.0

-- ask Just curious, what result did C=C/C=C(\NC(=O)C(Cl)(Cl)Cl)[Si](C)(C)C get here?
-- reply 0.0

-- ask Name the outcome recorded for COC(=O)NCCc1n[nH]c2c1C(=O)C=C(OC)C2=O in the assay.
-- reply 0.0

-- ask Status in this test for CC(=O)c1csc2c1C(=O)c1scc(C(C)=O)c1C2=O ?
-- reply 0.0

-- ask Record lookup: outcome of this test for O=C(NN1C(=O)CSC1c1cccc(F)c1)c1ccncc1 (centres undefined) ?
-- reply 0.0

-- ask Hello, I am checking results. What call was entered for COC(=O)c1ccccc1N(C(=O)c1ccccc1)c1ccccc1C ?
-- reply 0.0

-- ask Returns: the outcome recorded for O=C(CC(=O)n1nc(-c2ccccc2)c(/N=N/c2ccc([N+](=O)[O-])cc2)c1-c1ccccc1)Nc1ccc(Cl)cc1 in this assay.
-- reply 0.0

---

# Test system: OVCAR-8
# protocol-notes: NCI tumour cell line growth inhibition, 48 h
Active and inactive are the calls of the source. No stated cut-off is given here; in the data, active = GI50 up to about 1.1 µM and inactive = higher.
Outcome field: choose from active, inactive

These solved cases illustrate the format of a correct answer.
compound: COc1ccc(O)c(/C=N\Nc2ccccc2)c1
label-class: inactive

compound: c1ccc2c(c1)Nc1c3ccccc3nc3cccc-2c13
label-class: active

compound: CC(C)N1CC2CC(CN(C(=O)c3ccc(Cl)cc3)C2)C1
label-class: inactive

compound: COc1ccc(SCc2cc(OC)c(OC)c(OC)c2)cc1OC
label-class: inactive

-- ask Given O=c1c2cc(Cl)ccc2sc2cccc(Cl)c12 , state the outcome it received in this test.
-- reply inactive

-- ask Hi, sorry to bother you, what did the test record for CC(C)(C)OC(=O)c1ccc(NCc2cc(O)ccc2O)cc1 ?
-- reply inactive

---

# Test system: DLD-1
# protocol-notes: NCI tumour cell line growth inhibition, 48 h
Active and inactive are the calls of the source. No stated cut-off is given here; in the data, active = GI50 up to about 1.1 µM and inactive = higher.
Measured GI50 of individual entries

The value of GI50 measured for the compound Cc1ccc(S(=O)(=O)c2ccc(C)cc2[N+](=O)[O-])cc1 turned out to be > 100 µM (inactive)

Notebook: N#Cc1ccc(Cc2ccccn2)cc1Cl , GI50 read as > 100 µM (inactive)

What the record says about O=C(CC1(O)C(=O)Nc2c(Cl)ccc(Cl)c21)c1ccco1 (stereo not drawn) : GI50 is 39.7 µM (inactive)

---

# Test system: SK-OV-3
# protocol-notes: NCI tumour cell line growth inhibition, 48 h
Active and inactive are the calls of the source. No stated cut-off is given here; in the data, active = GI50 up to about 1.1 µM and inactive = higher.
value-kind: GI50

compound: CC(C)C(=O)/C=C/c1ccc(Cl)c(Cl)c1
system-name: SK-OV-3
GI50: 28.6 µM (inactive)
//
compound: CC(C)C(OC(=O)c1ccc(NCC2=CC(=O)C=CC2=O)cc1)C(C)C
system-name: SK-OV-3
GI50: 13.8 µM (inactive)
//
compound: Cc1cccc(/C=N/NC(=S)N2CCCCCC2)n1
system-name: SK-OV-3
GI50: 0.556 µM (active)
//
compound: COc1ccc2oc(C(=O)N3CC(CCl)c4ccc(N)cc43)cc2c1 (stereo unspecified)
system-name: SK-OV-3
GI50: 1.35 µM (inactive)
//
compound: CC(=O)OC1CC2CCN3C(=O)c4cc5c(cc4[C@H](C1OC(C)=O)C23)OCO5 (stereo partly specified)
system-name: SK-OV-3
GI50: > 100 µM (inactive)
//
compound: C(=N\NC1=NCCN1)/c1ccc(-c2cn3cc(/C=N/NC4=NCCN4)ccc3n2)cc1
system-name: SK-OV-3
GI50: > 100 µM (inactive)
//
compound: C=C1C(=O)OC2C1C(OC(=O)/C(=C/C)COC(C)=O)CC1(CO1)C1C(OC(=O)/C(=C/C)CO)C=C(C)C21 (stereo unspecified)
system-name: SK-OV-3
GI50: 17.1 µM (inactive)
//
compound: CC1(C(=O)Nc2ccc3cc4ccccc4cc3c2)CC2(C)CC(C)(C1)C(O)NC2=O (stereo unspecified)
system-name: SK-OV-3
GI50: > 100 µM (inactive)

// recorded GI50 for Nc1ncnc2c1ccn2C/C=C/CO : > 100 µM (inactive)

Field GI50 (entry O=C(Nc1ccc(Cl)cc1)c1cc2c(cc1Cl)Sc1nccn1S2(=O)=O ) reads 64 µM (inactive)

Field GI50 (entry O=C1NC(O)CCN1C1OC(CO)C(O)C1O (stereo unspecified) ) reads > 250 µM (inactive)

// GI50 lookup, compound = C(CCCCc1nnc(N2CCCCC2)o1)CCCc1nnc(N2CCCCC2)o1 , result: > 100 µM (inactive)

Reported GI50 of COc1cc2c(cc1O)-c1c(OC)c(O)cc3c1C(C2)N(C)CC3 (stereo unspecified) : > 100 µM (inactive)

Reported GI50 of NC(Cc1cc(Br)c(O)c(Br)c1)C(=O)O (stereo unspecified) : > 100 µM (inactive)

Looking up CCON=C1C(C)(C)C(C)(C)C(C)(C)C1(C)C , I found its GI50 recorded as > 100 µM (inactive)

What the record says about Cc1c(CCN2CCOCC2)c(N2CCOCC2)n2c(nc3ccccc32)c1C#N : GI50 is > 10 µM (inactive)

GI50 recorded for this compound, COc1ccc(/C=C(\C(C)=O)C(=O)Nc2ccccc2)cc1 , is > 100 µM (inactive)

GET /value?item= COC(=O)c1cc2c(=O)n(C)c3ccccc3n2c1C(=O)OC &field=GI50 returns 28.1 µM (inactive)

Per the records, this compound ( CN1C(=O)C(C(=O)Nc2ccccn2)C2C[C@@]1(C)Oc1ccccc12 (stereo partly specified) ) has GI50 equal to > 100 µM (inactive)

Given item COC(=O)/C=C\C(C#N)(C#N)/N=C/c1sccc1C , the value recorded as its GI50 is 18.4 µM (inactive)

Record COC(=O)c1ccccc1C1CN=NC12Cc1cc(C)cc(C)c1C2=O (stereo unspecified) . Reported GI50: > 100 µM (inactive)

Note to self: GI50 recorded for COc1c(-c2ccccc2)oc2c(CP(=O)(OC)OC)cccc2c1=O was > 100 µM (inactive)

Record CN1C=Cc2nccc3cc4c(c1c23)OCO4 . Reported GI50: 8.39 µM (inactive)

GI50 reported for this compound O=c1[nH]c2cc([N+](=O)[O-])c(Nc3c4ccccc4nc4ccccc34)c([N+](=O)[O-])c2[nH]1 : 4.04 µM (inactive)

Lab note: CC(C)c1ccc(O)c(Cc2cc(C(C)C)cc(Cc3cc(C(C)C)ccc3O)c2O)c1 gave GI50 of 1.68 µM (inactive)

Noted for Cc1cn(C2CC(OC(=O)c3ccc(Cl)cc3)C(COC(=O)c3ccc(Cl)cc3)O2)c(=O)[nH]c1=O (stereo unspecified) : its GI50 reads > 100 µM (inactive)

---

# System: A549
# protocol-notes: NCI tumour cell line growth inhibition, 48 h
Active and inactive are the calls of the source. Cut-off read from the data, not from the text of the source: active = GI50 up to about 1.1 µM and inactive = higher.
value-kind: GI50

Solved cases below.
molecule: O=C1CCN2C(=N1)Sc1ccccc12
GI50: > 100 µM (inactive)
--
molecule: COC(=O)c1cc2c(=O)n(C)c3ccccc3n2c1C(=O)OC
GI50: 66.4 µM (inactive)
--
molecule: COc1ccc(-c2coc3cc(O)ccc3c2=O)cc1 [FORMONONETIN]
GI50: > 100 µM (inactive)

According to the records, this molecule O=Cc1c2c(cc3c1CC1(C3)Cc3cc4c(c(C=O)c3C1)CCC4)CCC2 displays GI50 of 30.3 µM (inactive)

Data point: CN1CCC23c4c5ccc(Oc6nnnn6-c6ccccc6)c4OC2c2[nH]c4ccccc4c2CC3(O)C1C5 (configuration not stated) ; GI50 = 3.96 µM (inactive)

GI50 measured on CC1CCC2C(C)C3C(CC4C5CC=C6CC(OC7OC(CO)C(O)C(OC8OC(CO)C(O)C(O)C8O)C7OC7OC(C)C(O)C(O)C7O)CCC6(C)C5CCC43C)N2C1 (configuration not stated) = 7.05 µM (inactive)
